Target: UniProt:Q96RI1
Sequence (Q96RI1 whole entry): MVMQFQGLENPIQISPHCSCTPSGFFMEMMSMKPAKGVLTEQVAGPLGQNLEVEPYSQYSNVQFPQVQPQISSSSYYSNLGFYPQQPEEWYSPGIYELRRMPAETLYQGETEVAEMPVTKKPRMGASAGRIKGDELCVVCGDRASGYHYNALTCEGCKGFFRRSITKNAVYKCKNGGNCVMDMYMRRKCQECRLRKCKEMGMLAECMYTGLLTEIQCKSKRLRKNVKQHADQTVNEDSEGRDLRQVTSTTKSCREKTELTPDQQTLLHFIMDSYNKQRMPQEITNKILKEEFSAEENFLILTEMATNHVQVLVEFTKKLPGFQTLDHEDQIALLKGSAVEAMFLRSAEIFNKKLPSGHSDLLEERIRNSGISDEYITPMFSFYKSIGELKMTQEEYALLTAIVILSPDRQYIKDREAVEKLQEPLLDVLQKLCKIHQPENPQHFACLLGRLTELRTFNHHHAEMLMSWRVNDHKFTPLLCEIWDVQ
Assay: Binding affinity for human Farnesoid X receptor in FRET assay
pEC50: −log10 of the molar value.
Reported pEC50 values for a set of compounds

Worked examples follow.
C[C@H](CCC(=O)O)C1CC[C@H]2[C@@H]3[C@H](O)[C@H](O)C4C[C@H](O)CC[C@]4(C)[C@H]3CC[C@]12C (stereo partly drawn)	< 4.52
C[C@H](C(=O)O)C1CC[C@H]2[C@@H]3[C@H](O)CC4C[C@H](O)CC[C@]4(C)[C@H]3CC[C@]12C (stereo partly drawn)	< 4.52

Below: the item to evaluate.
Name the reported pEC50 value associated with the compound C[C@@H](C1CC[C@H]2[C@@H]3[C@H](O)CC4C[C@H](O)CC[C@]4(C)[C@H]3CC[C@]12C)[C@@H]1C[C@@H]1C(=O)O (stereo partly drawn)
< 4.52
